Biological target: T1, recombinant human IL-23R/Fc chimera (R&D Systems) (human, UniProt Q5VWK5 24-353)
T1 construct: bought; also called human IL-23R/Fc fusion protein; rhIL23RFc
T1 sequence (looked up): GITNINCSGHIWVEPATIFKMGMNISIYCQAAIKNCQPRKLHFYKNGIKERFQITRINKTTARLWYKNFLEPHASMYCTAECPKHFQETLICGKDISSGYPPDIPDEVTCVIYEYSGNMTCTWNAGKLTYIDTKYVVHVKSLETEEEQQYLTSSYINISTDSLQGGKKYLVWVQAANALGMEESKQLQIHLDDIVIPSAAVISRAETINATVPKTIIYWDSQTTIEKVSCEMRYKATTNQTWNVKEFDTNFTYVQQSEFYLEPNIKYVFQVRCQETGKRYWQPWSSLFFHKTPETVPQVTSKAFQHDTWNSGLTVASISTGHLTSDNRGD
Assay: competition ELISA against IL-23
Reported Ratio IC50 to 056-53.H4E IC50 values follow for various binders
PARAMETER MEASURED: Ratio IC50 to 056-53.H4E IC50 (ratio)

BINDER	RECORDED VALUE
105-08-2C12 ATRIMER (designed binder, Homotrimer of the given chain (ATRIMER complex).) EPPTQKPKKIVNAKKDVVNTKMFEELKSRLDTLAQEVALLKEQQALQTVCLKGTKVHMKCFLAFTQTKTFHEASEDCISRGGTLSTPQTGSENDALYEYLRQSVGNEAEIWLGLNGSQRTDTWVDMTGARIAYKNWETEITAQPDGGFGYFGENCAVLSGAANGKWFDKRCRDQLPYICQFGIV	3.3
105-08-2A1 ATRIMER (designed binder) EPPTQKPKKIVNAKKDVVNTKMFEELKSRLDTLAQEVALLKEQQALQTVCLKGTKVHMKCFLAFTQTKTFHEASEDCISRGGTLSTPQTGSENDALYEYLRQSVGNEAEIWLGLNGSMRTDTWVDMTGARIAYKNWETEITAQPDGGWGYFGENCAVLSGAANGKWFDKRCRDQLPYICQFGIV	5
101-54-4B3 ATRIMER (designed binder) EPPTQKPKKIVNAKKDVVNTKMFEELKSRLDTLAQEVALLKEQQALQTVCLKGTKVHMKCFLAFTQTKTFHEASEDCISRGGTLSTPQTGSENDALYEYLRQSVGNEAEIWLGLNGSALTNTWVDMTGARIAYKNWELPPPGHPQGGFGVFGENCAVLSGAANGKWFDKRCRDQLPYICQFGIV	1
